target.or.system: His6-TEV-PPARγ-(234-505) (Homo sapiens, UniProt P37231)
Construct: The His6-TEV-PPARγ-(234-505) protein for assay was expressed and purified; TEV cleavage site (N); made in house
Sequence (P37231 234-505): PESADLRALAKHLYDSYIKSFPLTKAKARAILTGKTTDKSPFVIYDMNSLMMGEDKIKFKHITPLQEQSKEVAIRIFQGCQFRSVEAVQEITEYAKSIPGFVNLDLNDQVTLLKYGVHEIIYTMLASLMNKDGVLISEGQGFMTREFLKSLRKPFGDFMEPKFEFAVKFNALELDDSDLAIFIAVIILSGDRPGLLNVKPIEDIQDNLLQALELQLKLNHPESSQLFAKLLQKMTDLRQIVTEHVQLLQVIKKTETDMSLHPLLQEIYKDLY
protocol.summary: TR-FRET Assay to Measure Co-R Peptide Recruitment to PPARγ
Assay type: biochemical
assay.setup: Co-R peptide (SMRT-ID2) recruitment; top final concentration 20 μM; read-out: TR-FRET i-Ag; AC50
observation.type: AC50 (nM)

- compound: "COc1cc(-c2cc(C(=O)N3CC[C@H](C(=O)NCC45COC(C(F)(F)F)(C4)C5)CC34CC4)n[nH]2)c(F)cn1"
  observation.type: "AC50"
  units: "nM"
  numeric.result: 21.4
- compound: "COc1cc(-c2cc(C(=O)N3CC[C@H](C(=O)NCc4sc(C)nc4C(F)(F)F)CC34CC4)[nH]n2)c(F)cn1"
  observation.type: "AC50"
  units: "nM"
  numeric.result: 7.9
- compound: "COc1cc(-c2cc(C(=O)N3CC[C@H](C(=O)NC4CCN(c5cnnc(C)c5)C4)CC34CC4)n[nH]2)c(F)cn1 (single isomer, unassigned) [Example 452-A]"
  observation.type: "AC50"
  units: "nM"
  numeric.result: 8.7
- compound: "COc1cc(-c2cc(C(=O)N3CCC(C(=O)NCc4ncccc4F)CC3)n[nH]2)c(Cl)cn1"
  observation.type: "AC50"
  units: "nM"
  numeric.result: 262

Where do the numbers come from? From patent US12606541B2.
